target: MAGL (Mus musculus, UniProt O35678); test: biochemical; conditions: mouse; in vitro competitive ABPP; read-out: Mouse (IC50 value, nM) MAGL
Below, each entry is listed alongside its reported IC50.

| Molecule | Recorded Result |
| --- | --- |
| O=C(ON1C(=O)CCC1=O)N1CC2CN(Cc3ccc(N4CCOCC4)cc3C(F)(F)F)CC2C1 (stereo not shown) | 100 to 1000 nM |

Now consider a different molecule.
Reported IC50 for CCn1cc(CN2CC3CN(C(=O)OC(C(F)(F)F)C(F)(F)F)CC3C2)c(-c2ccccc2N2CCOCC2)n1 (stereo not shown) : what is it?
< 100 nM

---

Molecular target: MAGL (Mus musculus, UniProt O35678)
Sequence (O35678 1-303): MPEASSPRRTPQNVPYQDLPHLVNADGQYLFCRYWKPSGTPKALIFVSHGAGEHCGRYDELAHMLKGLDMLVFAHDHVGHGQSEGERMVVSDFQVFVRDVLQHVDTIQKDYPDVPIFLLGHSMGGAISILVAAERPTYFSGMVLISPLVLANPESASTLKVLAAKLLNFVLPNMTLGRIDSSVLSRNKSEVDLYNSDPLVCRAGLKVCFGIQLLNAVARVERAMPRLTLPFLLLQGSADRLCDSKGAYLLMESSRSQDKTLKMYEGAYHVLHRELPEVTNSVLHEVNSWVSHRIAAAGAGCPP
Experiment: biochemical
Details: mouse; in vitro competitive ABPP; read-out: Mouse (IC50 value, nM) MAGL
Readout Type: IC50

| Compound | Assayed Target | Readout Type | Recorded Result |
| --- | --- | --- | --- |
| O=C(OC(C(F)(F)F)C(F)(F)F)N1CC2CN(Cc3ccc(Cl)cc3N3CCOC4CCCC43)CC2C1 (stereo not drawn) | MAGL (Mus musculus, UniProt O35678) | IC50 | 100 to 1000 nM |
| CC(=O)NC1CCN(c2cccc(CN3CC4CN(C(=O)OC(C(F)(F)F)C(F)(F)F)CC4C3)c2C)CC1 (stereo not drawn) | MAGL (Mus musculus, UniProt O35678) | IC50 | < 100 nM |
| O=C(ON1C(=O)CCC1=O)N1CC2CN(Cc3ccccc3-c3ccccc3)CC2C1 (stereo not drawn) | MAGL (Mus musculus, UniProt O35678) | IC50 | 100 to 1000 nM |
| CC(C)c1cc(CN2CC3CN(C(=O)OC(C(F)(F)F)C(F)(F)F)CC3C2)n(C2CCCCC2)n1 (stereo not drawn) | MAGL (Mus musculus, UniProt O35678) | IC50 | < 100 nM |
| O=C(OC(C(F)(F)F)C(F)(F)F)N1CC2CN(Cc3cccc(Cl)c3N3C4CCC3COC4)CC2C1 (stereo not drawn) | MAGL (Mus musculus, UniProt O35678) | IC50 | < 100 nM |
| O=C(OC(C(F)(F)F)C(F)(F)F)N1CC2CN(Cc3ccc(Cl)cc3N3CCn4ccnc4C3)CC2C1 (stereo not drawn) | MAGL (Mus musculus, UniProt O35678) | IC50 | < 100 nM |

// lookup IC50 for CCc1cc(CN2CC3CN(C(=O)OC(C(F)(F)F)C(F)(F)F)CC3C2)n(-c2ccccc2Cl)n1 (stereo not drawn)
< 100 nM

What IC50 value was documented for this compound, CCn1cc(CN2CC3CN(C(=O)OC(C(F)(F)F)C(F)(F)F)CC3C2)c(-c2ccccc2N2CCCCC2)n1 (stereo not drawn) ?
< 100 nM

Any idea what its IC50 is? The compound is Cc1c(CN2CC3CN(C(=O)OC(C(F)(F)F)C(F)(F)F)CC3C2)cccc1C(=O)N1CCCCC1 (stereo not drawn)
< 100 nM
